# Assay: Solubility in water at 1 mg/ml
# Assay type: physicochemical
# Measurement parameters: buffer
Residues, ends and D or L forms follow the SMILES beside them.
Parameter: solubility

>>> result("CCCCCCCCCCCC(=O)N[C@@H](CS)C(=O)NCC(=O)N[C@@H](CCCNC(=N)N)C(=O)N[C@@H](CCCCN)C(=O)O (HELM PEPTIDE1{[CCCCCCCCCCCC(=O)[*:2]].C.G.R.K}$$$$V2.0)")
"Soluble"
>>> result("CC(=O)N[C@@H](CCCNC(=N)N)C(=O)N[C@@H](CS)C(=O)NCC(=O)N[C@H](C(N)=O)C(C)C (Ac-RCGV-NH2)")
"Soluble"

----------
# Assayed target: Stromelysin-1 (Homo sapiens)
# Sequence (P08254 whole entry): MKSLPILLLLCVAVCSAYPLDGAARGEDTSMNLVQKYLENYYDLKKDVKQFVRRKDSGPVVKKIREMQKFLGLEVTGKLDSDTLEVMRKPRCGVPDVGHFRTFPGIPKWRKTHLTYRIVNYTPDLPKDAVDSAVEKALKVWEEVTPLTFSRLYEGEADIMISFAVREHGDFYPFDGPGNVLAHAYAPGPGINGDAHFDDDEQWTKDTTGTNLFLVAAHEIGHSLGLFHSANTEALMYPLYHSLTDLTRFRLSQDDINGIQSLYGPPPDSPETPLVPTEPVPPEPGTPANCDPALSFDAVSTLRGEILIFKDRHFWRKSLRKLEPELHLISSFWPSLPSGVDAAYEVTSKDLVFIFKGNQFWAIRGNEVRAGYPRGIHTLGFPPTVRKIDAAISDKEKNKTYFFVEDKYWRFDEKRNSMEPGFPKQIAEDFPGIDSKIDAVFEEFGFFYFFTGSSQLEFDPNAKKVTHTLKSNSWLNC
# Assay: Inhibition of human MMP3 catalytic subunit by fluorometric analysis
pIC50: −log10 of the molar value. Residues, ends and D or L forms follow the SMILES beside them.
Quick rule: pIC50 of at least 4 means 1.0, below that means 0.0.

>>> label("CCCCCCCC(=O)N[C@@H](CS)C(=O)NCC(=O)N[C@@H](CCCNC(=N)N)C(=O)O (HELM PEPTIDE1{[CCCCCCCC(=O)[*:2]].C.G.R}$$$$V2.0)")
1.0
>>> label("CCCCCCCCCCCC(=O)N[C@@H](CS)C(=O)NCC(=O)N[C@@H](CCCNC(=N)N)C(=O)N[C@@H](CCCCN)C(=O)O (HELM PEPTIDE1{[CCCCCCCCCCCC(=O)[*:2]].C.G.R.K}$$$$V2.0)")
1.0
>>> label("CCCCCCCCNC(=O)C[C@H](NC(=O)CNC(=O)[C@H](CS)NC(=O)[C@H](CCCNC(=N)N)NC(C)=O)C(N)=O (HELM PEPTIDE1{[ac].R.C.G.D.[am]}|CHEM1{[CCCCCCCCN[*:1]]}$PEPTIDE1,CHEM1,5:R3-1:R1$$$V2.0)")
1.0
>>> label("CC(=O)N[C@@H](CS)C(=O)NCC(=O)N[C@@H](CCCNC(=N)N)C(=O)O (Ac-Cys-Gly-Arg-OH)")
0.0
>>> label("CCCCCCCCNC(=O)C[C@H](NC(=O)CNC(=O)[C@H](CS)NC(=O)[C@@H](N)CCCNC(=N)N)C(N)=O (HELM PEPTIDE1{R.C.G.D.[am]}|CHEM1{[CCCCCCCCN[*:1]]}$PEPTIDE1,CHEM1,4:R3-1:R1$$$V2.0)")
0.0

----------
IC50 values by entry
# Assayed target: UniProt:P08254
# Assay: Inhibition of human MMP3 catalytic subunit by fluorometric analysis
Residues, ends and D or L forms follow the SMILES beside them.
Parameter: IC50 (µM)

>>> numeric_readout("CCCC[C@H](NC(=O)CNC(=O)[C@H](CS)NC(=O)[C@H](CCCNC(=N)N)NC(C)=O)C(N)=O (HELM PEPTIDE1{[ac].R.C.G.[Nle].[am]}$$$$V2.0)")
79.5
>>> numeric_readout("CC(=O)N[C@@H](CCCNC(=N)N)C(=O)N[C@@H](CS)C(=O)NCC(N)=O (Ac-Arg-Cys-Gly-NH2)")
95.3
